Tested Target: T1, human TNFR1 on MRC-5 cells (human, UniProt P19438 30-455)
T1 sequence (looked up): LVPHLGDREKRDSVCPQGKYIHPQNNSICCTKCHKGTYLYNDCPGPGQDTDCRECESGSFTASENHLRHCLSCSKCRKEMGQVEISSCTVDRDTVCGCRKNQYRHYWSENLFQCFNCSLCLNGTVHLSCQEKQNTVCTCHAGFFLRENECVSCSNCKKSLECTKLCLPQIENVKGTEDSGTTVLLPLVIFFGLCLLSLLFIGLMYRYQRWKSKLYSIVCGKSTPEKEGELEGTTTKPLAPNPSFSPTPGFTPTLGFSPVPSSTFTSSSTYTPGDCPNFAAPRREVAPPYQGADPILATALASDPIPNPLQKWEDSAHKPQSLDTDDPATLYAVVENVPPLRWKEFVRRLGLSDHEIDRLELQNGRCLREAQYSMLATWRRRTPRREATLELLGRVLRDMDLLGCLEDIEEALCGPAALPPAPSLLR
Assay Method Text: cell-based or functional assay
Measured Property: MRC5 ND50
In your response, the unit should come after the numeric value.

Req: Data request, read-out MRC5 ND50, for DMS0133 (bispecific antibody) EVQLLESGGGLVQPGGSLRLSCAASGFTFFKYSMGWVRQAPGKGLEWVSQISDTADRTYYAHSVKGRFTISRDNSKNTLYLQMNSLRAEDTAVYYCAIYTGRWAPFEYWGQGTLVTVSSASTDIQMTQSPSSLSASVGDRVTITCRASRPIGTTLSWYQQKPGKAPKLLILWNSRLQSGVPSRFSGSGSGTDFTLTISSLQPEDFATYYCAQAGTHPTTFGQGTKVEIKR
Resp: 0.99 nM

Req: GET /values?readout=MRC5 ND50&item= DMS0134 (bispecific antibody) EVQLLESGGGLVQPGGSLRLSCAASGFTFFKYSMGWVRQAPGKGLEWVSQISDTADRTYYAHSVKGRFTISRDNSKNTLYLQMNSLRAEDTAVYYCAIYTGRWVPFEYWGQGTLVTVSSASTDIQMTQSPSSLSASVGDRVTITCRASRPIGTTLSWYQQKPGKAPKLLILWNSRLQSGVPSRFSGSGSGTDFTLTISSLQPEDFATYYCAQAGTHPTTFGQGTKVEIKR
Resp: 0.96 nM

Req: Entry under review: DMS0132 (bispecific antibody) EVQLLESGGGLVQPGGSLRLSCAASGFTFVKYSMGWVRQAPGKGLEWVSQISDTADRTYYAHSVKGRFTISRDNSKNTLYLQMNSLRAEDTAVYYCAIYTGRWVPFEYWGQGTLVTVSSASTDIQMTQSPSSLSASVGDRVTITCRASRPIGTTLSWYQQKPGKAPKLLILWNSRLQSGVPSRFSGSGSGTDFTLTISSLQPEDFATYYCAQAGTHPTTFGQGTKVEIKR . Reported MRC5 ND50?
Resp: 1.04 nM

Req: Dear colleague, I am looking for the recorded MRC5 ND50 of the following binder: DMS0135 (bispecific antibody) EVQLLESGGGLVQPGGSLRLSCAASGFTFFKYSMGWVRQAPGKGLEWVSQISDTADRTYYSHSVKGRFTISRDNSKNTLYLQMNSLRAEDTAVYYCAIYTGRWVPFEYWGQGTLVTVSSASTDIQMTQSPSSLSASVGDRVTITCRASRPIGTTLSWYQQKPGKAPKLLILWNSRLQSGVPSRFSGSGSGTDFTLTISSLQPEDFATYYCAQAGTHPTTFGQGTKVEIKR
Resp: 1.17 nM

Where these numbers come from: patent US20110301335A1
